Tested on: Rattus norvegicus
assay-details: Antiallergic activity in po dosed rat assessed as inhibition of egg albumin-induced passive cutaneous anaphylaxis treated for 15 mins followed by egg albumin-challenge measured after 30 mins
Assay type: functional
assay-conditions: read-out: ID50 (the source's name)
measurement-label: ED50 (mg/kg)
Please give a number only; it is taken to be in mg/kg.

Some entries whose results are on file:
Measured ED50 of CC(=O)C1=C(O)/C(=C(\C)Nc2ccc(O)cc2)C(=O)OC1=O : 29

Measured ED50 of CC(=O)C1=C(O)/C(=C(\C)Nc2cc(N)cc(N)c2)C(=O)OC1=O : 0.9

Measured ED50 of CCC(=O)Nc1cc(N/C(C)=C2\C(=O)OC(=O)C(C(C)=O)=C2O)ccc1O : 0.6

Moving on to the next compound.
Measured ED50 of CC(=O)C1=C(O)/C(=C(\C)Nc2cc(N)cc(O)c2)C(=O)OC1=O.Cl : 8
